system: MS2 coat protein; experiment: apparent KD of MS2 coat protein; designed switch direction (-1 OFF switch, 1 ON switch): -1; higher = weaker reporter binding; settings: Eterna round: R95; input ligand: none
Consider the following partition of reported apparent KD of MS2 coat protein into named classes: LOW: < 30 nM; MID: ≥ 30 nM and < 50 nM; HIGH: ≥ 50 nM

>>> class("UCGUGGUAAAUCAGGUGAUGUCUGAUAGGAUGGACUUUGACAUGAGGAUCACCCAUGUUGCUUUUUGCCCGUCUUAA [JR_SV3TOV2_Sub044] (puzzle: Sensor v3, turn-off variant 2)")
"LOW"

Enquiry: Given AAAUAACAAGCGAGAUCCUACAUGAGGAUCACCCAUGUGCUCGUCUUAUUAAGUACUAUCACGAAAGUGAUAGUACA [Mat - Sensor v3 - turn-off var 1 - Eli Mod - D66] (puzzle: Sensor v3, turn-off variant 1) , name the class its apparent KD of MS2 coat protein places it in.
Return: LOW

Enquiry: Using the reported apparent KD of MS2 coat protein, which band applies to ACGUGAUAUCUGUCGGUGGACAUGAGGAUCACCCAUGUAAGCUCUUUGCUCGUCUUAUAACCCGGUGACAGACCUUC [Xerile] (puzzle: Sensor v3, turn-off variant 1) ?
Return: HIGH

Enquiry: # classify by apparent KD of MS2 coat protein band: UGUGGAGCUUAGGAUAUUGCUCUACCAAGAGGGCGAGAAGGGAGCACAUGAGGAUCACCCAUGUGGUCCGGAAC [Edoroner] (puzzle: Exclusion 6)
Return: LOW

Enquiry: For the record GGAAAGUGAGGAUAUGGUAAAGUAAGUAUGUAGUAAGUAAUCCAGAAGGCACAUGAGGAUCACCCAUGUAAAGG [Mat - Exclusion 4 - D101] (puzzle: Exclusion 4) , report the class its apparent KD of MS2 coat protein corresponds to.
Return: LOW

Enquiry: Tag the class for GCCGGUGUUGCGGAUAAGCUUUUCUGCUCGUUUUAUCGCACAUGAGGAUCACCCAUGUCAUCCGUCAGCAUGCAAAC [Aredardi] (puzzle: Sensor v3, turn-off variant 2)
Return: LOW

Enquiry: Form: Item = AGUAGUAGUAUCCGAUCCUACAUGAGGAUCACCCAUGUAGCUAGACGUGCACGCGAUGCUCGUCAGACUACCAGAUG [salish99_TOv1_r3_033] (puzzle: Sensor v3, turn-off variant 1) ; Class = ?
Return: HIGH

Enquiry: Which apparent KD of MS2 coat protein band matches AUAAUUUAAGUGAGGAUAUACCUAUGGAAACAUAGGUAGAAGGCACAUGAGGAUCACCCAUGUUCCUAUACAUA [Fiskers BMX 4 - 3] (puzzle: Brourd's mod of Exclusion 4) ?
Return: LOW
